# measurement.context: in ethyl formate, 272.05 K
property.name: solubility (mole fraction)
Number only, please.

Name the reported solubility (mole fraction) value associated with the compound `C=CC(=O)NC(C)(C)CC(C)=O` 0.186

====

# measurement.context: in isopropanol, 288.15 K
property.name: solubility (mole fraction)
Number only, please.

Name the reported solubility (mole fraction) value associated with the compound `C=CC(=O)NC(C)(C)CC(C)=O` 0.286

====

# measurement.context: in n-butanol, 318.85 K
property.name: solubility (mole fraction)
Number only, please.

Name the reported solubility (mole fraction) value associated with the molecule `C=CC(=O)NC(C)(C)CC(C)=O` 0.793

====

# measurement.context: in ethanol, 293.35 K
property.name: solubility (mole fraction)
Number only, please.

Name the reported solubility (mole fraction) value associated with the molecule `C=CC(=O)NC(C)(C)CC(C)=O` 0.374

Origin of the recorded values: BigSolDB 2.1
